assay notes: chemical genetic growth profiling, strain panel (AID 1159580);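 note: tested at 20 µM; growth read once vehicle control cultures reached saturation at 30 °C; 1 = growth at the plate median or of vehicle wells; lower values mean less growth of the strain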
cond: S. cerevisiae deletion strains, growth OD, locus YKL190W, strain CNB1, active compounds read low
The campaign covered roughly 5,500 compounds. About 2,000 (36%) were called active. About 18% were inconclusive and are not listed. The list shows a part of the results.
# Lookup of reported normalized growth keyed by entry
assay readout: normalized growth

compound="CC(C)c1c(O)ccc2c1CCC1[C@@](C)(C=O)CCC[C@]21C (stereo not given in full)" assay_readout="normalized growth" assay_value=0.154
compound=CCOC(=O)N/N=C\c1ccccc1OCC assay_readout="normalized growth" assay_value=1
compound=COc1ccc(-c2oc3c(CC=C(C)C)c(O[C@@H]4O[C@H](CO)[C@@H](O)[C@H](O)[C@H]4O)cc(O)c3c(=O)c2O[C@@H]2O[C@@H](C)[C@H](O)[C@@H](O)[C@H]2O)cc1 assay_readout="normalized growth" assay_value=1.02
compound=CC1=CC(=O)C2=C(C)CC[C@@H]3[C@H](OC(=O)[C@H]3C)[C@@H]12 assay_readout="normalized growth" assay_value=1.01
compound=Cc1ccc(-c2csc(-c3ccc(Oc4ccc(C(F)(F)F)cn4)cc3)n2)c(C)c1 assay_readout="normalized growth" assay_value=0.993
compound="CC(=O)Oc1ccc2c(c1OC(C)=O)OCC1(O)Cc3c(cc(OC(C)=O)c(OC(C)=O)c3OC(C)=O)C21 (stereo not given)" assay_readout="normalized growth" assay_value=0.987
compound=COc1ccc(-c2cc(=O)c3c(O)cc(O[C@H]4O[C@H](CO[C@@H]5O[C@@H](C)[C@H](O)[C@@H](O)[C@H]5O)[C@@H](O)[C@H](O)[C@H]4O)cc3o2)cc1 assay_readout="normalized growth" assay_value=0.994
compound="C[C@@H]1O[C@@H](OC[C@H]2OC(Oc3c(-c4ccc(OCCO)c(OCCO)c4)oc4cc(OCCO)cc(O)c4c3=O)[C@H](O)[C@@H](O)[C@@H]2O)[C@H](O)[C@H](O)[C@H]1O (stereo not given in full)" assay_readout="normalized growth" assay_value=0.992
compound=NC(=O)CN1CCCC1=O assay_readout="normalized growth" assay_value=1
compound=O=c1c(O)c(-c2cc(O)c(O)c(O)c2)oc2cc(O)cc(O)c12 assay_readout="normalized growth" assay_value=1.01
compound=COc1cc(OC)c2c(=O)c(O)c(-c3ccc(OC)c(OC)c3)oc2c1 assay_readout="normalized growth" assay_value=0.202
compound="CCOC(=O)c1sc(S(C)(=O)=O)c2c1CCCC2O (stereo not given)" assay_readout="normalized growth" assay_value=1
compound=CN1C[C@H](C(=O)N[C@]2(C)O[C@@]3(O)[C@@H]4CCCN4C(=O)[C@H](Cc4ccccc4)N3C2=O)C[C@@H]2c3cccc4[nH]cc(c34)C[C@H]21 assay_readout="normalized growth" assay_value=0.992
compound="COC(=O)[C@]1(C)CCC[C@]2(C)c3ccc(C(C)C)cc3C(=O)CC12 (stereo not given in full)" assay_readout="normalized growth" assay_value=0.967
compound=COc1cc(O)c2c(=O)c(O)c(-c3ccc(O)c(O)c3)oc2c1 assay_readout="normalized growth" assay_value=0.997
